System: CD2F1 mice, L1210 leukemia ip, survival T/C
measurement_description: NCI In Vivo Anticancer Drug Screen. Data for tumor model L1210 Leukemia (intraperitoneal) in CD2F1 (CDF1) mice
measurement_conditions: endpoint: mean survival time; dose: 100.0 mg/kg/injection; schedule: Q04DX003 (ip); vehicle: saline with Tween-80; higher = longer survival
Experimental: The antitumor activity of compounds was measured in mice bearing transplantable tumors. Survival or tumor size were measured and the results are expressed as the measurement made in the treated group (T) divided by the measurement made in the vehicle treated control group (C). The tumor model used in this assay is L1210 Leukemia (intraperitoneal) in CD2F1 (CDF1) mice
Inconclusive results and toxic doses are left out.
# T/C values compiled below
recorded_metric: T/C

{"molecule": "CNC(=O)C(=O)NC", "assay_value": "101 % of control"}
{"molecule": "Cc1cc(C)c(/C=N/NC(=O)NN)c(C)c1", "assay_value": "91 % of control"}
{"molecule": "Cc1nc(C)c(CCO)c(=O)[nH]1", "assay_value": "97 % of control"}
{"molecule": "ClCCCCOCCCCCl", "assay_value": "97 % of control"}
{"molecule": "CCc1ccc(O[Si](C)(C)C)cc1", "assay_value": "97 % of control"}
{"molecule": "O=C(COc1ccccc1)NCc1ccc(Cl)cc1", "assay_value": "98 % of control"}
{"molecule": "NS(=O)(=O)C1CCC(Cl)NC1 (configuration not stated)", "assay_value": "100 % of control"}
{"molecule": "CC(C)CCC(C)C1CCC2C3CC([N+](=O)[O-])=C4CC(OC(=O)c5ccccc5)CCC4(C)C3CCC12C (configuration not stated)", "assay_value": "102 % of control"}
{"molecule": "C1CCC(NC2=NCCO2)CC1", "assay_value": "90 % of control"}
{"molecule": "Nc1ncnc(N)c1NC(=O)c1cccc(OCc2ccccc2)c1", "assay_value": "100 % of control"}
{"molecule": "C=C(C)C(=O)OCCN(C)C (tested in a mixture with another compound)", "assay_value": "100 % of control"}
{"molecule": "[O-][n+]1c2ccccc2c(Oc2ccccc2)c2ccc3ccccc3c21", "assay_value": "86 % of control"}
{"molecule": "Cc1cc(Br)cnc1Cl", "assay_value": "92 % of control"}
{"molecule": "Cc1ccc(-n2c(N)cc(=O)[nH]c2=S)nc1", "assay_value": "95 % of control"}
{"molecule": "CCOC(=O)c1[nH]cnc1/N=N/N(C)CCO", "assay_value": "106 % of control"}
{"molecule": "COc1ccc(C(C#N)=C2C=CC(=NO)C=C2)cc1", "assay_value": "98 % of control"}
{"molecule": "O=C(/C=C1/OCCN1C(=O)Nc1ccccc1)Nc1ccccc1", "assay_value": "107 % of control"}
{"molecule": "CCOC(OCC)c1nc(N)[nH]c(=O)c1CCCCc1ccccc1", "assay_value": "87 % of control"}
{"molecule": "CN(C)c1ccc(N=Nc2ccc(Cl)c(Cl)c2)cc1", "assay_value": "98 % of control"}
{"molecule": "Nc1nc(N)c2[nH]cnc2n1", "assay_value": "95 % of control"}
{"molecule": "Cn1c(=O)cc(C(=O)NCCCN2CCOCC2)c2ccccc21", "assay_value": "92 % of control"}
{"molecule": "Nc1ccc(Nc2ccccc2C(=O)O)cc1", "assay_value": "105 % of control"}
{"molecule": "C1CN(CCSSCCN2CCOCC2)CCO1", "assay_value": "104 % of control"}
{"molecule": "OCCNC(=S)Nc1ccccc1", "assay_value": "100 % of control"}
{"molecule": "Cc1c(Cc2ccccc2)[n+](=O)c2ccccc2n1[O-]", "assay_value": "97 % of control"}
{"molecule": "O/N=C(/CN1CCOCC1)c1ccccc1", "assay_value": "102 % of control"}
{"molecule": "C(=N\\N=C(c1ccccc1)c1ccccc1)/c1ccc2c(c1)CCC2", "assay_value": "87 % of control"}
{"molecule": "CCC1OC2CS(=O)(=O)CC2O1 (configuration not stated)", "assay_value": "96 % of control"}
{"molecule": "O=C(Nc1ccc(C(=O)O)cc1)OCc1ccccc1", "assay_value": "100 % of control"}
{"molecule": "O=[N+]([O-])c1cccc(C=Nc2ccc3c(c2)C(Br)c2ccccc2-3)c1 (configuration not stated)", "assay_value": "97 % of control"}
{"molecule": "O=C1OC2CCC13CCCCC3C2 (configuration not stated)", "assay_value": "96 % of control"}
{"molecule": "O=[N+]([O-])c1ccc(/C=C/C=C/c2ccccc2)cc1", "assay_value": "101 % of control"}
{"molecule": "COc1cc(C(=O)N(C(C)C)C2CCCCC2)cc(OC)c1OC", "assay_value": "104 % of control"}
{"molecule": "c1ccc2c(c1)oc1ccccc12", "assay_value": "98 % of control"}
{"molecule": "CCCCOC(=O)CCCC(=O)OCCCC", "assay_value": "95 % of control"}
{"molecule": "O=C(CCCCCNC(=O)OCc1ccccc1)Oc1ccc([N+](=O)[O-])cc1", "assay_value": "101 % of control"}
{"molecule": "C/C(=N\\Nc1ccc([N+](=O)[O-])cc1[N+](=O)[O-])c1ccc[nH]1", "assay_value": "95 % of control"}
{"molecule": "CCS(=O)(=O)/C=C(\\I)C(C)(C)C", "assay_value": "98 % of control"}
{"molecule": "O=C(O)C(O)(C1CCCCC1)C1CCC2CCC3CCCC1C32 (configuration not stated)", "assay_value": "105 % of control"}
{"molecule": "O=C(Nc1ccc(F)cc1)c1cccc(Cl)c1", "assay_value": "94 % of control"}
{"molecule": "Cc1cc(Cc2ccc(N=C=O)c(C)c2)ccc1N=C=O", "assay_value": "103 % of control"}
{"molecule": "C=C1C(=O)O[C@H]2C[C@@H](C)[C@@H]3[C@@H](O)C[C@@H](O)[C@@]3(C)C[C@H]12", "assay_value": "102 % of control"}
